The values you see were collected from patent US8604218B2.

Recorded pIC50, one value per entry.
Target: UniProtKB O75116
Experiment: Rho Kinase Inhibition Assay (IMAP fluorescence polarization)
Details: isolated enzyme, 10 μM ATP, 60 minutes at room temperature
For clarity, pIC50 is expressed as the negative log10 of concentration in mol/L.

*Q* GET /values?readout=pIC50&item= CN(C)Cc1ccc(CN2CCCC(Nc3ccc4[nH]ncc4c3)C2)cc1 (centres unmarked)
*A* 4.87

*Q* Also, CN(C)CCCOc1ccc(CN2CCC(Nc3ccc4[nH]ncc4c3)C2)cc1 (centres unmarked) please.
*A* 5.46

*Q* How about c1cc(N[C@@H]2CCN(Cc3ccc(SC4CC4)cc3)C2)c2ccncc2c1 ?
*A* 5.72

*Q* Next entry: OCCOc1cccc(CN2CCC(Nc3ccc4[nH]ncc4c3)C2)c1 (centres unmarked)
*A* 6.19

*Q* Lookup Cc1ccc(CN2CC[C@H](Nc3cccc4cnccc34)C2)cc1
*A* 6.10

*Q* Also c1ccc(-c2ccc(CN3CCCC(Nc4ccc5[nH]ncc5c4)C3)cc2)cc1 (centres unmarked) ?
*A* 5.79

*Q* Please do the same for c1cc2cc(CN3CCCC(Nc4ccc5[nH]ncc5c4)C3)ccc2o1 (centres unmarked) as well.
*A* 7.82

*Q* Okay, and NC(=O)Cn1ccc2ccc(CN3CCC[C@H](Nc4ccc5[nH]ncc5c4)C3)cc21 ?
*A* 6.83

---

List of pIC50 values.
Molecular target: UniProt O75116
Assay: Rho Kinase Inhibition Assay (IMAP fluorescence polarization)
Conditions: isolated enzyme, 10 μM ATP, 60 minutes at room temperature
Procedure: Following the preincubation, 10 μM ATP was added to initiate the reaction. After 60 minutes at room temperature, Molecular Devices IMAP™ binding solution was added to bind phosphorylated substrate. After 30 minutes of incubation in the presence of the IMAP™ beads the fluorescence polarization was read and the ratio was reported as mP. IC50 results were calculated using the Prism software from Graphpad. See Tian et al., Arch. Ophthalmol. […] Ophthalmol. Vis. […] Ophthalmol. […] Cytoskel. […] Ophthalmol. Vis. […]
// pIC50: -log10(molar conc.)

Sample answers from the record:
| compound | pIC50 |
| --- | --- |
| CSc1ccc(CN2CC[C@@H](Nc3cccc4cnccc34)C2)cc1 | 5.20 |
| OCCOc1cccc(CN2CC[C@H](Nc3ccc4[nH]ncc4c3)C2)c1 | 6.33 |
| Clc1ccc(CN2CCC[C@H](Nc3ccc4[nH]ncc4c3)C2)cc1Cl | 6.79 |
| FC(F)(F)c1cccc(CN2CCC(Nc3cccc4cnccc34)C2)c1 (stereo not drawn) | 6.20 |
| Nc1n[nH]c2ccc(NC3CCCN(Cc4ccccc4)C3)cc12 (stereo not drawn) | 5.98 |
| CS(=O)(=O)Nc1cccc(CN2CC[C@@H](Nc3cccc4cnccc34)C2)c1 | 6.95 |

*Q* Name the reported pIC50 value associated with the compound Cc1ccc(CN2CC[C@@H](Nc3cccc4cnccc34)C2)cc1
*A* 7.52

*Q* Continue with O=C(O)COc1cccc(CN2CCCC(Nc3ccc4[nH]ncc4c3)C2)c1 (stereo not drawn)
*A* 6.51

*Q* Same read-out for c1cc(SC2CC2)ccc1CN1CCCC(Nc2ccc3[nH]ncc3c2)C1 (stereo not drawn) ?
*A* 5.67

---

Target: ROCK2 (Homo sapiens (Human), UniProt O75116)
Sequence (O75116 11-552): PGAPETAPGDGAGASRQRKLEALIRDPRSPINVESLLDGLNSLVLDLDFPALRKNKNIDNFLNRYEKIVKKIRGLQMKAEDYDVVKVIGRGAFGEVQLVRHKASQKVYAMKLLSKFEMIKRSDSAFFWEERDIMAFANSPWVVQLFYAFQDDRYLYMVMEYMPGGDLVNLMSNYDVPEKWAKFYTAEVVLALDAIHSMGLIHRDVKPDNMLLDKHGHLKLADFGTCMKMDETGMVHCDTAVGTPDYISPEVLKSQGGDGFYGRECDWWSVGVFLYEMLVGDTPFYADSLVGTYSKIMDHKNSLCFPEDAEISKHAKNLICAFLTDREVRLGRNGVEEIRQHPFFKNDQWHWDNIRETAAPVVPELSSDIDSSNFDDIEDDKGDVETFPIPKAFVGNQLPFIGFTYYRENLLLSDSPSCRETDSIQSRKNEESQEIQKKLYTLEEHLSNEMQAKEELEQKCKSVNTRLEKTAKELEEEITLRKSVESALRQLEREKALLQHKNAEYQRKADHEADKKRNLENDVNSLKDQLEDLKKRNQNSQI
Experiment: Rho Kinase Inhibition Assay (IMAP fluorescence polarization)
Details: isolated enzyme, 10 μM ATP, 60 minutes at room temperature
Parameter: IC50. Scope: all listed entries.
Field: numeric (nM). Do not append units.

Before answering, review these 5 worked examples.
| compound | IC50, nM |
| --- | --- |
| Brc1cccc(CN2CCCC(Nc3ccc4[nH]ncc4c3)C2)c1 (centres unmarked) [Compound 1.045] | 586 |
| CS(=O)(=O)Nc1cccc(CN2CC[C@H](Nc3ccc4[nH]ncc4c3)C2)c1 [Compound 1.095] | 647 |
| CC(C)(C)OC(=O)NCc1cccc(CN2CCCC(Nc3ccc4[nH]ncc4c3)C2)c1 (centres unmarked) [Compound 1.057] | 194 |
| Clc1ccc(CN2CC[C@H](Nc3cccc4cnccc34)C2)cc1 [Compound 2.030] | 2460 |
| CS(=O)(=O)c1ccc(CN2CCC(Nc3ccc4[nH]ncc4c3)C2)cc1 (centres unmarked) [Compound 1.004] | 254 |

*Q* # query: IC50 of entry CSc1ccc(CN2CCCC(Nc3ccc4[nH]ncc4c3)C2)cc1 (centres unmarked) [Compound 1.008]
*A* 65.8

*Q* Same question, O=C(O)COc1cccc(CN2CC[C@@H](Nc3cccc4cnccc34)C2)c1 [Compound 2.044] this time
*A* 433

*Q* Moving on to c1cc(CN2CC[C@@H](Nc3cccc4cnccc34)C2)cc(C2CC2)c1 [Compound 2.020]
*A* 820

---

The following molecules are shown together with reported log10 IC50 values.
Biological target: ROCK2 (Homo sapiens (Human))
Experiment: Rho Kinase Inhibition Assay (IMAP fluorescence polarization)
Settings: isolated enzyme, 10 μM ATP, 60 minutes at room temperature
Log10 applied to IC50; unit prior to transform: nM.

| molecule | readout_value |
| --- | --- |
| OCC#Cc1ccc(CN2CCCC(Nc3ccc4[nH]ncc4c3)C2)cc1 (centres unmarked) | 3.64 |

*Q* // returns reported log10 IC50 for input c1cc(NC2CCCN(Cc3ccc(SC4CC4)cc3)C2)c2ccncc2c1 (centres unmarked)
*A* 4.17

*Q* Now consider CC(C)Oc1ccc(CN2CCCC(Nc3ccc4[nH]ncc4c3)C2)cc1 (centres unmarked) and answer again.
*A* 4.00

*Q* Try this molecule next: C#Cc1ccc(CN2CCC[C@H](Nc3ccc4[nH]ncc4c3)C2)cc1
*A* 1.73

*Q* What do we get for CC(C)(C)OC(=O)NCc1ccc(CN2CCCC(Nc3ccc4[nH]ncc4c3)C2)cc1 (centres unmarked) ?
*A* 3.82

*Q* Entry to check: OCCOc1ccc(CN2CCCC(Nc3ccc4[nH]ncc4c3)C2)cc1 (centres unmarked)
*A* 3.38

*Q* Then CS(=O)(=O)Nc1cccc(CN2CC[C@@H](Nc3ccc4[nH]ncc4c3)C2)c1 ?
*A* 2.44

---

Biological target: ROCK2 (Homo sapiens (Human))
Experiment: Rho Kinase Inhibition Assay (IMAP fluorescence polarization)
Conditions: isolated enzyme, 10 μM ATP, 60 minutes at room temperature
pIC50: −log10 of the molar value.
Values of pIC50 greater than or equal to 6 map to Criterion met; values below map to Criterion not met.

*Q* Reported pIC50 at or above 6? Fc1ccc(CN2CCC[C@H](Nc3ccc4[nH]ncc4c3)C2)cc1F
*A* Criterion met

*Q* Repeat with COc1ccc(CN2CCC(Nc3cccc4cnccc34)C2)cc1 (centres unmarked)
*A* Criterion met

---

Target: ROCK2 (Homo sapiens (Human), UniProt O75116)
Assay: Rho Kinase Inhibition Assay (IMAP fluorescence polarization)
Settings: isolated enzyme, 10 μM ATP, 60 minutes at room temperature
A collection of compounds and their measured IC50
All answers are understood in nM, so give the number only.

# example entries with known answers
| compound | assay_target | IC50 / nM |
| --- | --- | --- |
| OCCn1ccc2cc(CN3CCCC(Nc4ccc5[nH]ncc5c4)C3)ccc21 (stereo not drawn) | ROCK2 (Homo sapiens (Human), UniProt O75116) | 1490 |
| CC(=O)c1ccc(CN2CCCC(Nc3ccc4[nH]ncc4c3)C2)cc1 (stereo not drawn) | ROCK2 (Homo sapiens (Human), UniProt O75116) | 1020 |
| OCCn1ccc2ccc(CN3CCCC(Nc4ccc5[nH]ncc5c4)C3)cc21 (stereo not drawn) | ROCK2 (Homo sapiens (Human), UniProt O75116) | 68.5 |
| OCc1ccc(CN2CCCC(Nc3ccc4[nH]ncc4c3)C2)cc1 (stereo not drawn) | ROCK2 (Homo sapiens (Human), UniProt O75116) | 588 |

*Q* // lookup IC50 for FC(F)(F)c1cccc(CN2CCC(Nc3ccc4[nH]ncc4c3)C2)c1 (stereo not drawn)
*A* 165

*Q* Quick one: C[C@@H](O)COc1cccc(CN2CCC[C@H](Nc3ccc4[nH]ncc4c3)C2)c1
*A* 1400

---

The molecules listed here are annotated with their IC50.
Biological target: ROCK2 (Homo sapiens (Human))
Assay: Rho Kinase Inhibition Assay (IMAP fluorescence polarization)
Conditions: isolated enzyme, 10 μM ATP, 60 minutes at room temperature
// note: answer is a bare numeric in nM

Examples with answers:
| molecule | unit | IC50 |
| --- | --- | --- |
| FC(F)(F)c1cccc(CN2CCCC(Nc3cccc4cnccc34)C2)c1 (centres unmarked) | nM | 4190 |
| OC[C@H](O)COc1cccc(CN2CCC[C@@H](Nc3ccc4[nH]ncc4c3)C2)c1 | nM | 859 |
| CS(=O)(=O)c1cccc(CN2CCCC(Nc3ccc4[nH]ncc4c3)C2)c1 (centres unmarked) | nM | 721 |
| C#Cc1ccc(CN2CC[C@@H](Nc3cccc4cnccc34)C2)cc1 | nM | 87.1 |
| c1cc(CN2CCCC(Nc3cccc4cnccc34)C2)cc(C2CC2)c1 (centres unmarked) | nM | 4090 |

*Q* I am curious: what IC50 value has been reported for CS(=O)(=O)c1ccc(CN2CCCC(Nc3ccc4[nH]ncc4c3)C2)cc1 (centres unmarked) ?
*A* 358

*Q* What do you have for OCCOc1cccc(CN2CCC[C@@H](Nc3ccc4[nH]ncc4c3)C2)c1 ?
*A* 406

*Q* And OCCN1CCc2ccc(CN3CCCC(Nc4ccc5[nH]ncc5c4)C3)cc21 (centres unmarked) ?
*A* 107

*Q* Please do the same for CS(=O)(=O)Nc1cccc(CN2CCC[C@H](Nc3cccc4cnccc34)C2)c1 as well.
*A* 3060
